Target: PKM2 (Homo sapiens)
Assay: PKM2 Assay (activation, LDH-coupled, absorbance at 340 nm)
Type: biochemical
Conditions: Table 5
Give AC50 for every item shown.

Some solved entries appear below for comparison.
{"columns": ["compound", "observedValue"],
 "data": [
  ["O=C(c1ccc(NS(=O)(=O)c2cccc3cccnc23)cc1Cl)N1CCN(Cc2cc(F)c(F)c(F)c2)CC1", "< 100 nM"],
  ["COc1ccncc1CN1CCN(C(=O)c2ccc(NS(=O)(=O)c3cccc4cccnc34)c(OC(F)(F)F)c2)CC1", "100 to 500 nM"]
]}

Give AC50 for all compounds that follow.
1. COc1cc(C(=O)N2CCN(C(=O)c3ccc(F)c(F)c3)CC2)ccc1NS(=O)(=O)c1cccc2cccnc12
2. O=C(c1ccc(NS(=O)(=O)c2cccc3cccnc23)cc1Cl)N1CCN(CC2CCOC2)CC1 (stereo not shown)
3. O=C(c1ccc(NS(=O)(=O)c2cccc3cccnc23)cc1)N1CCN(C(=O)c2c[nH]cn2)CC1
4. CC(C)(c1ccccc1)N1CCN(C(=O)c2ccc(NS(=O)(=O)c3cccc4cccnc34)cc2)CC1
5. O=C(c1ccc(NS(=O)(=O)c2cccc3cccnc23)cc1)N1CCN(C(=O)c2cnns2)CC1

100 to 500 nM
100 to 500 nM
100 to 500 nM
< 100 nM
< 100 nM

###

Target: PKM2 (Homo sapiens, UniProt P14618)
Sequence (P14618 whole entry): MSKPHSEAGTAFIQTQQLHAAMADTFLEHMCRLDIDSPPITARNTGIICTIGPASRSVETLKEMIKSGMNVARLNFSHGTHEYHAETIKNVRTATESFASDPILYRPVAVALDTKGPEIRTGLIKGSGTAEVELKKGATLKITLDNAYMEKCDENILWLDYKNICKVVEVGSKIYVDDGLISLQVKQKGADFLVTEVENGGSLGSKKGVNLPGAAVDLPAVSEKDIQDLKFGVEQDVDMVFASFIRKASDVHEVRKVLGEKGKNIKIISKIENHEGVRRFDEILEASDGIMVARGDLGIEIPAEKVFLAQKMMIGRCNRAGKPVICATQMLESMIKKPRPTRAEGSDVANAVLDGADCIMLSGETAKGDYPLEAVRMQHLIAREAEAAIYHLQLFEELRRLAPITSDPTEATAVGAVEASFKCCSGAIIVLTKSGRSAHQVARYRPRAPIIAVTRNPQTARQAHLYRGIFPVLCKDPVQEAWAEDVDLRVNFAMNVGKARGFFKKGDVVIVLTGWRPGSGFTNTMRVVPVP
Test: PKM2 Assay (activation, LDH-coupled, absorbance at 340 nm)
Assay type: biochemical
Conditions: Table 4
Give AC50 for every item shown.

{"columns": ["molecule", "systemTested", "observedValue"],
 "data": [
  ["C[C@H]1CN(C(=O)O[C@@H]2CCOC2)CCN1C(=O)c1ccc(NS(=O)(=O)c2cccc3cccnc23)cc1", "PKM2 (Homo sapiens, UniProt P14618)", "100 to 500 nM"]
]}

Give AC50 for all molecules that follow.
1. CC(c1ccc(F)c(F)c1F)N1CCN(C(=O)c2ccc(NS(=O)(=O)c3cccc4cccnc34)cc2)[C@H](C)C1 (some centres unmarked)
2. C[C@@H]1CN(CC2CCCO2)CCN1C(=O)c1ccc(NS(=O)(=O)c2cccc3cccnc23)cc1 (some centres unmarked)
3. C[C@@H]1CN(Cc2c(F)ccc(F)c2F)CCN1C(=O)c1ccc(NS(=O)(=O)c2cccc3cccnc23)cc1
4. C[C@@H]1CN(Cc2ccc(Cl)c(F)c2)CCN1C(=O)c1ccc(NS(=O)(=O)c2cccc3cccnc23)cc1
5. C[C@@H]1CN(Cc2ccc(F)cc2)CCN1C(=O)c1ccc(NS(=O)(=O)c2cccc3cccnc23)cc1
6. C[C@@H]1CN(C(=O)O[C@@H]2CCOC2)CCN1C(=O)c1ccc(NS(=O)(=O)c2cccc3cccnc23)cc1
7. C[C@H]1CN(Cc2cc(F)cc(F)c2F)CCN1C(=O)c1ccc(NS(=O)(=O)c2cccc3cccnc23)cc1

1: < 100 nM; 2: < 100 nM; 3: < 100 nM; 4: < 100 nM; 5: < 100 nM; 6: 100 to 500 nM; 7: < 100 nM

Give AC50 for all molecules that follow.
1. C[C@H]1CN(CC2CCCCC2)CCN1C(=O)c1ccc(NS(=O)(=O)c2cccc3cccnc23)cc1
2. C[C@@H]1CN(C(=O)OCC2CC2)CCN1C(=O)c1ccc(NS(=O)(=O)c2cccc3cccnc23)cc1
3. C[C@H]1CN(C(=O)OCC2CC2)CCN1C(=O)c1ccc(NS(=O)(=O)c2cccc3cccnc23)cc1
4. O=C(c1ccc(NS(=O)(=O)c2cccc3cccnc23)cc1)N1CC2CCC(C1)N2CC1CC1
5. CCOC(=O)N1[C@H](C)CN(C(=O)c2ccc(NS(=O)(=O)c3cccc4cccnc34)cc2)C[C@@H]1C
6. COc1cccc(CN2CCN(C(=O)c3ccc(NS(=O)(=O)c4cccc5cccnc45)cc3)[C@@H](C)C2)c1OC

["100 to 500 nM", "< 100 nM", "< 100 nM", "< 100 nM", "> 20000 nM", "1000 to 20000 nM"]

###

Molecular target: PKM2 (Homo sapiens, UniProt P14618)
Assay: PKM2 Assay (activation, LDH-coupled, absorbance at 340 nm)
Format: biochemical
Conditions: Table 5
assayMetric: AC50

Some solved entries appear below for comparison.
{"columns": ["compound", "systemTested", "AC50"],
 "data": [
  ["O=C(c1ccc(NS(=O)(=O)c2cccc3cccnc23)cc1)N1CCN(C(=O)C2CCOCC2)CC1 [Compound 417]", "PKM2 (Homo sapiens, UniProt P14618)", "0.1 to 0.5 µM"],
  ["CC(c1ccc(F)c(Cl)c1)N1CCN(C(=O)c2ccc(NS(=O)(=O)c3cccc4cccnc34)cc2)CC1 (stereo not shown) [Compound 332]", "PKM2 (Homo sapiens, UniProt P14618)", "< 0.1 µM"],
  ["O=C(c1ccc(NS(=O)(=O)c2cccc3cccnc23)c(OC(F)(F)F)c1)N1CCN(Cc2cccc(F)c2F)CC1 [Compound 375]", "PKM2 (Homo sapiens, UniProt P14618)", "0.1 to 0.5 µM"]
]}

Could you share which AC50 value was measured for O=C(c1ccc(NS(=O)(=O)c2cccc3cccnc23)c(C(F)(F)F)c1)N1CCN(CC2CCCO2)CC1 (stereo not shown) [Compound 329] ?
1 to 20 µM

###

Biological target: PKM2 (Homo sapiens)
Experiment: PKM2 Assay (activation, LDH-coupled, absorbance at 340 nm)
Type: biochemical
Settings: Table 5
assayMetric: AC50

Some solved entries appear below for comparison.
{"columns": ["compound", "assayMetric", "observedValue"],
 "data": [
  ["O=C(c1ccc(NS(=O)(=O)c2cccc3cccnc23)c(OC(F)(F)F)c1)N1CCN(Cc2ccc(F)c(Cl)c2)CC1 [Compound 376]", "AC50", "100 to 500 nM"],
  ["O=C(Oc1ccccn1)N1CCN(C(=O)c2ccc(NS(=O)(=O)c3cccc4cccnc34)c(OC(F)(F)F)c2)CC1 [Compound 344]", "AC50", "500 to 1000 nM"],
  ["O=C(c1ccc(NS(=O)(=O)c2cccc3cccnc23)c(OC(F)(F)F)c1)N1CCN(Cc2ccc(C(F)(F)F)cc2)CC1 [Compound 334]", "AC50", "100 to 500 nM"],
  ["COc1cc(C(=O)N2CCN(C(=O)c3csnn3)CC2)ccc1NS(=O)(=O)c1cccc2cccnc12 [Compound 321]", "AC50", "100 to 500 nM"],
  ["COc1cc(NS(=O)(=O)c2cccc3cccnc23)ccc1C(=O)N1CCN(C(C)(C)c2ccccc2)CC1 [Compound 355]", "AC50", "< 100 nM"]
]}

Give AC50 for all compounds that follow.
1. CC(c1ccc(F)c(F)c1F)N1CCN(C(=O)c2ccc(NS(=O)(=O)c3cccc4cccnc34)cc2)CC1 (centres unmarked) [Compound 403]
2. O=C(c1ccc(NS(=O)(=O)c2cccc3cccnc23)cc1)N1CCN(Cc2cc(F)cc(F)c2)CC1 [Compound 394]
3. C[C@H](c1ccccc1)N1CCN(C(=O)c2ccc(NS(=O)(=O)c3cccc4cccnc34)cc2)CC1 [Compound 388]
4. O=C(c1ccc(NS(=O)(=O)c2cccc3cccnc23)cc1F)N1CCN(CC2CC2)CC1 [Compound 424]
5. O=C(c1ccc(NS(=O)(=O)c2cccc3cccnc23)c(OC(F)(F)F)c1)N1CCN(C2(c3ccc(F)cc3)CC2)CC1 [Compound 402]
6. O=C(c1ccc(NS(=O)(=O)c2cccc3cccnc23)cc1F)N1CCN(Cc2cc(F)cc(F)c2)CC1 [Compound 421]
7. COc1cc(NS(=O)(=O)c2cccc3cccnc23)ccc1C(=O)N1CCN(C2(c3ccc(F)cc3)CC2)CC1 [Compound 401]
8. O=C(c1ccc(NS(=O)(=O)c2cccc3cccnc23)cc1Cl)N1CCN(CC2CCOCC2)CC1 [Compound 440]

["< 100 nM", "< 100 nM", "< 100 nM", "100 to 500 nM", "100 to 500 nM", "< 100 nM", "< 100 nM", "100 to 500 nM"]

Could you share which AC50 value was measured for O=C(c1cnc(NS(=O)(=O)c2cccc3cccnc23)cn1)N1CCN(Cc2ccc(F)cc2)CC1 [Compound 452] ?
1000 to 20000 nM

###

Give AC50 for every item shown.
Biological target: PKM2 (Homo sapiens, UniProt P14618)
Test: PKM2 Assay (activation, LDH-coupled, absorbance at 340 nm)
Assay type: biochemical
Settings: Table 5

{"columns": ["compound", "systemTested", "observedValue"],
 "data": [
  ["O=C(c1ccc(NS(=O)(=O)c2cccc3cccnc23)cc1Cl)N1CCN(CC2CC2)CC1", "PKM2 (Homo sapiens, UniProt P14618)", "< 100 nM"],
  ["O=C(c1ccc(NS(=O)(=O)c2cccc3cccnc23)cc1F)N1CCN(CC2CCOC2)CC1 (stereo not shown)", "PKM2 (Homo sapiens, UniProt P14618)", "< 100 nM"],
  ["O=C(OCC1CCCO1)N1CCN(C(=O)c2ccc(NS(=O)(=O)c3cccc4cccnc34)c(OC(F)(F)F)c2)CC1 (stereo not shown)", "PKM2 (Homo sapiens, UniProt P14618)", "1000 to 20000 nM"]
]}

Give AC50 for all compounds that follow.
1. O=C(c1ccc(NS(=O)(=O)c2cccc3cccnc23)cc1)N1CCN(Cc2cc[nH]n2)CC1
2. COc1ccc(CN2CCN(C(=O)c3ccc(NS(=O)(=O)c4cccc5cccnc45)c(OC(F)(F)F)c3)CC2)cc1
3. C[C@@H](c1ccccc1)N1CCN(C(=O)c2ccc(NS(=O)(=O)c3cccc4cccnc34)cc2)CC1
4. O=C(c1ccc(NS(=O)(=O)c2cccc3cccnc23)c(OC(F)(F)F)c1)N1CCN(Cc2ccncc2F)CC1

["< 100 nM", "100 to 500 nM", "< 100 nM", "100 to 500 nM"]

Origin of the recorded values: patent US8889667B2
